biological target: mCOX-2^V349L (Mus musculus, UniProt Q05769, V335L); test: Steady-state quenching of COX intrinsic fluorescence (apo-protein); settings: fluorescence quenching
Sequence (Q05769 18-604 V335L): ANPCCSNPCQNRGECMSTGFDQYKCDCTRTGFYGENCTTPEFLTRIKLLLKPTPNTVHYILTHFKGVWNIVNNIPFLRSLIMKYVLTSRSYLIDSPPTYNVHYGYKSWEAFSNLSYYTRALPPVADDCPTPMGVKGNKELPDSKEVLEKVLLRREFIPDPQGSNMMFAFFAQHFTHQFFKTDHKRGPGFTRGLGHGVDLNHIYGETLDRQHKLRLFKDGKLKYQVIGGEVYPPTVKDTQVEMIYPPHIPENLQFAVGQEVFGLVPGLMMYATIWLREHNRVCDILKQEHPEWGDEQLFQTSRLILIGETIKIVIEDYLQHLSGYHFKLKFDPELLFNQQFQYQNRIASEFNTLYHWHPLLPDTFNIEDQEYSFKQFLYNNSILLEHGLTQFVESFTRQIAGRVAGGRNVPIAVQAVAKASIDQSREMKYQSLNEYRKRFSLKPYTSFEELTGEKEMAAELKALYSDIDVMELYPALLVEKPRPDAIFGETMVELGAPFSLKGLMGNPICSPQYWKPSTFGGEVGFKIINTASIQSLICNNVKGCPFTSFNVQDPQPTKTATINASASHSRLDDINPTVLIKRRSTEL
experimental.readout: Kd
Field note: include the unit after the figure.

input: So what does the record say about Kd for "COc1ccc2c(c1)c(CC(=O)O)cn2C(=O)c1ccc(Cl)cc1" ?
output: 34 µM

====

biological target: mCOX-2^V349I (Mus musculus, UniProt Q05769, V335I); experiment: Time-dependent IC50 COX inhibition assay; conditions: 20 min pre-incubation, then 50 μM AA for 30 s
Sequence (Q05769 18-604 V335I): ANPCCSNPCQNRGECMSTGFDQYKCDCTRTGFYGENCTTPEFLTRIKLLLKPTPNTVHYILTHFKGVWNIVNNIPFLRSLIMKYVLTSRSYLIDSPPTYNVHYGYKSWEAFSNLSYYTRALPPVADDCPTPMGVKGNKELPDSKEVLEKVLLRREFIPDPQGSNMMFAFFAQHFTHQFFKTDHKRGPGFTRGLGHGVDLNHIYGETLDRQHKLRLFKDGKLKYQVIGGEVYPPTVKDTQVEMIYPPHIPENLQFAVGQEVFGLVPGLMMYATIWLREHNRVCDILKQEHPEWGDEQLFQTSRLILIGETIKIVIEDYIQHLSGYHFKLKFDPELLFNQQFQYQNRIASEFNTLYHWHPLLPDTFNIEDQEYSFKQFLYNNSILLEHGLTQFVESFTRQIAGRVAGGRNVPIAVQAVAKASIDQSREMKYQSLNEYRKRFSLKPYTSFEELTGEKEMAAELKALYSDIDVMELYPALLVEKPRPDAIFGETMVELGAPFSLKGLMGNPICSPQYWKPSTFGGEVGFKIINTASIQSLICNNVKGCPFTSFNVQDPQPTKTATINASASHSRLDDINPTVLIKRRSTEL
experimental.readout: IC50 (µM)
Use µM as the unit, but write only the number.

input: // lookup IC50 for "COc1ccc2c(c1)c(CC(=O)O)cn2C(=O)c1ccc(Cl)cc1"
output: 3
